binders and their reported EC50
Molecular target: T1, full-length untagged human GPNMB expressed on cells (human, UniProt Q14956 23-572)
T1 construct: also used here for GPNMB on human monocyte-derived macrophages in the functional assays; also called huGPNMB; Freestyle293-huGPNMB+
T1 sequence: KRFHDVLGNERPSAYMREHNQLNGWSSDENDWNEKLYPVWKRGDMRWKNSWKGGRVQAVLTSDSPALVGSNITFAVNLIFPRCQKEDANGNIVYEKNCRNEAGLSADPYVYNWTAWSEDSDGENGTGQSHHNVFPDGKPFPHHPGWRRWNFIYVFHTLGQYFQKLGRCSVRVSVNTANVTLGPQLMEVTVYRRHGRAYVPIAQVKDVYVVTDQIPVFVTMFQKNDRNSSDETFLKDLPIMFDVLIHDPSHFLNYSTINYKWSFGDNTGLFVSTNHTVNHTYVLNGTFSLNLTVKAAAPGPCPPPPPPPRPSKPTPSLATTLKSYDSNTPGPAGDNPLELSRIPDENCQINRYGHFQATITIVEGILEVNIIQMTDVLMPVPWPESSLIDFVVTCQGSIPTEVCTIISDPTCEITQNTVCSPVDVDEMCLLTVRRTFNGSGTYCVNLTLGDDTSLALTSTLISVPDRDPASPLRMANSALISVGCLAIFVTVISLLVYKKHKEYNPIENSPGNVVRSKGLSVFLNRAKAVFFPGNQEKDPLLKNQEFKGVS
Assay: FACS titration, FS293-huGPNMB+ cells
The response must be a number in nM with no trailing unit.

Q: What value of EC50 has been recorded for this entry: anti-GPNMB antibody GPN-41 (antibody, human IgG1, V domains shown, chimeric) VH: QLQLQQSGTEVVKPGASVKIPCKASGYAFSSYWMNWVKQRPGKGLEWIGQIYPGDGDTNDNGKFEGKATLTVDKSSNTAYIQLSSLTSEDSAVYFCARSPLHLRGSMDYWGQGTSVTVSS VL: SIVMTQTPKFLLVSAGDRVTITCKASQSVSNDVAWFQQKPGQSPELLIYSASNRYTGVPDRFTASGYGTDFTFTISAVQAEDLAVYFCQQNYYSPFTFGGGTRLEIK
A: 3.88

Q: What value of EC50 has been recorded for this entry: anti-GPNMB antibody GPN-01 (antibody, human IgG1, V domains shown, chimeric) VH: QVQLQQSGAELAKPGASVKLSCKASGYNFTNYCIHWVKQRPGQGLEWIGYINPSTGYTEYNQKFKDKATLTADKSSTTAYMQLSSLTSEDSAVYYCARGRYDEFTYWGQGTLVTVSA VL: DIVLTQSPASLAVSLGQRATISCRASKSVSTSTYSYMHWYQQKPGQPPKLLIYLASNLESGVPARFSGSGSGTDFTLNIHPVEEEDAATYYCQHSRELPPTFGGGTKLEIK
A: 0.17

Q: What value of EC50 has been recorded for this entry: anti-GPNMB antibody GPN-34 (antibody, human IgG1, V domains shown, chimeric) VH: EVKLVESGGGLVQPGRSLKLSCAASGFNFYDYWMGWVRQAPGKGLEWIGEINKDSRTINYTPFLKDRFTISRDNAQNTLYLQMSKLGSEDTAIYYCAREGRVPFDYWGQGVMVTVSS VL: DIQMTQSPSSMSVSLGDTVTIPCRASQDVGSYVNWFQQKPGKSPRHMIYRATNLADGVPSRFSGSRSGADYSLTISSLESEDVADYHCQQYAEYPLTFGSGTKLEIK
A: 0.41

Q: What value of EC50 has been recorded for this entry: anti-GPNMB antibody GPN-35 (antibody, human IgG1, V domains shown, chimeric) VH: EVQLVESGGGSVRPGRSLKLSCAAAGFTFSDYYMTWVRQAPTKGLEWVASINHDGGGTYYRDSVKGRFTISRDNARSSLYLQMDSLRSEDTGTYYCTTRAGWHWGQGVMVTVSS VL: DIQMTQSPASLSASLGETVSIECLASEDIYNYLTWYQQKPGKSPQVLIYSASGLQDGVPSRFSGSGSGRQYSLKINGLESEDAATYFCLQDSEYPLTFGSGTKLEIK
A: 1.33

Q: What value of EC50 has been recorded for this entry: anti-GPNMB antibody GPN-30 (antibody, human IgG1, V domains shown, chimeric) VH: EVQLQQSGPELVNPGASVRISCKASGYSFTGYYMNWVKQSPEKSLEWIGEINPNTGFTTYNQNFKAKATLTVDKSSSTAYIQLKSLTSEDSAVYYCTRPSPSFDYWGQGTTLTVSS VL: DIQMTQSPSSLSASLGERGSLTCRASQEISGHLSWLQQKPDGTIKRLIYAASTLDSGVPKRFSGSRSGSDYSLTISSLESEDFADYYCLQYASYPYTFGGGTKLEIK
A: 1.12
